Source listed as the supplement of paper PMC12783771.

List of sfGFP reporter fluorescence values.
B1: library; numbered along this chain (parent)
chain: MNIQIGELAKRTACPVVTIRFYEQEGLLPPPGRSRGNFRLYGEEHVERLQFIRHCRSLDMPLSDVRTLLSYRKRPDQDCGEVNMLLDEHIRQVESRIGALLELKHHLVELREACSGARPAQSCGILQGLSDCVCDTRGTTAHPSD

Variants of: B1
Experiment: sfGFP reporter fluorescence (15 h) (µM FITC); higher = stronger transcriptional activation
Details: library round: Round 1; ligand: 30 µM Zn
Number, no unit, nothing else.

MNIQIGELAKRTACPVVTIRFYEQEGLLPPPGRSRGNFRLYGEEHVERLQFIRHCRSLDMPLSIVRTLLSYRKRPDQDCGEVNMLLDEHIRQVESRIGALLELKHHLVELREACSGARPAQSCGILQGLSDCVCTTRGTTAHPSD [D64I D135T] :: 1.63
MNIQIGELAKRTACPVVTIRFYEQEGLLPPPGRSRGNFRLYGEEHVERLQFIRHCRSLDMPLSKVRTLLSYRKRPDQDCGEVNMLLDEHIRQVESRIGALLELKHHLVELREACSGARPAQSCGILQGLSDCVCYTRGTTAHPSD [D64K D135Y] :: 1.09
MNIQIGELAKRTACPVVTIRFYEQEGLLPPPGRSRGNFRLYGEEHVERLQFIRHCRSLDMPLSDVRTLLSYRKRPDQDCGEVTMLLDEHIRQVESRIGALLELKHHLVELAEACSGARPAQSCGILQGLSDCVCDTRGTTAHPSD [N83T R111A] :: 0.341
MNIQIGELAKRTACPVVTIRFYEQEGLLPPPGRSRGNFRLYGEEHVERLQFIRHCRSLDMPLSDVRTLLSYRKRPDQDCGEVNMILDEHIRQVESRIGALLELKHHLVELREACSGARPAQSCGILQGLSDCVCDTRGTTAHMSD [L85I P143M] :: 0.401
MNIQIGELAKRTACPVVTIRFYEQEGLLPPPGRSRGNFRLYGEEHVERLQFIRHCRSLDMNLSAVRTLLSYRKRPDQDCGEVNMLLDEHIRQVESRIGALLELKHHLVELREACSGARPAQSCGILQGLSDCVCDTRGTTAHPSD [P61N D64A] :: 1.07

In: Give reported sfGFP reporter fluorescence value for MNIQIGELAKRTACPVVTIRFYEQEGLLPPPGRSRGNFRLYGEEHVERLQFIRHCRSLDMPLSDVRTLLSYRKRPDQDCGEVNMLLDEHIRQVESRIGALLELKHHLVELREACSGARPAQSCGILQGLSACVCDTRGTTAHLSD [D131A P143L]
Out: 0.559

In: Give reported sfGFP reporter fluorescence value for MNIQIGELAKRTACPVVTIRFYEQEGLVPPPGRSRGNFRLYGEEHVERLQFIRHCRSLDMPLSDVRTLLSYRKRPDQDCGEVNMLLDEHIRQVESRIGALLELKHHLVELREACSGARPAQSCGILQGLSDCVTDTRGTTAHPSD [L28V C134T]
Out: 0.646
